Data origin: patent US7687508B2

# experimental.target: human CCR2 (Homo sapiens, UniProt P41597)
# Sequence (P41597 1-360 isoform P41597-2): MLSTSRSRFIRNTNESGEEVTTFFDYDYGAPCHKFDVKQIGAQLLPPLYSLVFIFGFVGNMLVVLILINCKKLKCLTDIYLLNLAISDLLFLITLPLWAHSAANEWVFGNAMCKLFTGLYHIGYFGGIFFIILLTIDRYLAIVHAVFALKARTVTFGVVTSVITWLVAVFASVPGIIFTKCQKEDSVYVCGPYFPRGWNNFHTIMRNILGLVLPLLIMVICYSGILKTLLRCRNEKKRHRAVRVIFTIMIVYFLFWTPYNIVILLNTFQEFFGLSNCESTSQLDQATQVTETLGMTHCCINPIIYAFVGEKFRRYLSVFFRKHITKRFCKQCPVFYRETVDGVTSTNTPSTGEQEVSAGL
# test.protocol: CCR2 chemotaxis (MCP-1-induced, THP-1 cells)
# Format: cell-based
# Set-up: hPBMCs were isolated from human leukopak (Biological Specialty Inc.); endogenous in cells; host or cells: human peripheral blood mononuclear cells from leukopak (Biological Specialty Inc.)
quantity.kind: IC50 (nM)
Express it in nM; write the number only.

Solved entries:
CO[C@@H]1CC[C@H](N2CC[C@H](Nc3ncnc4ccc(C(F)(F)F)cc34)C2=O)[C@H](CNC(C)=O)C1 | 0.92
CCC(=O)N[C@@H]1C[C@H](N)CC[C@@H]1N1CC[C@H](Nc2ncnc3ccc(C(F)(F)F)cc23)C1=O | 1.6
CC(=O)N[C@@H]1C[C@H](N(C)C(C)C)CC[C@@H]1N1CC[C@H](Nc2ncnc3cnc(C(C)(C)C)nc23)C1=O | 3.85
CC(=O)N[C@@H]1C[C@H](N(C)C(C)C)CC[C@@H]1N1CC[C@H](NC(=O)c2cccc(C(C)(C)C)n2)C1=O | 0.35

Fill blank: measured IC50 of the molecule CC(C)N(C)[C@@H]1CC[C@H](N2CC[C@H](Nc3ncnc4ccc(C(F)(F)F)cc34)C2=O)[C@H](NC=O)C1 is ____. 2.85

---

# test.protocol: Single-dose pharmacokinetics in rats
# Assay type: in vivo
# settings: male, Sprague-Dawley, plasma; rat, PO; dose per compound (mg/kg)
Parameter AUC: see the listing below.
// return the numeric value with its unit appended

CCC(=O)N[C@@H]1C[C@H](NC(C)(C)C)CC[C@@H]1N1CC[C@H](NC(=O)c2ccnc(C(C)(C)C)n2)C1=O | 5.23 µM·h
CC(C)(C)N[C@@H]1CC[C@H](N2CC[C@H](Nc3ncnc4cnc(C(C)(C)C)nc34)C2=O)[C@H](NS(C)(=O)=O)C1 | 10.5 µM·h
CC(C)(C)N[C@@H]1CC[C@H](N2CC[C@H](NC(=O)c3ccnc(C(C)(C)C)n3)C2=O)[C@H](NS(C)(=O)=O)C1 | 3.04 µM·h
CO[C@@H]1CC[C@H](N2CC[C@H](Nc3ncnc4ccc(C(F)(F)F)cc34)C2=O)[C@H](CNC(C)=O)C1 | 16.2 µM·h

Fill blank: measured AUC of the compound CCC(=O)N[C@@H]1C[C@H](N)CC[C@@H]1N1CC[C@H](Nc2ncnc3ccc(C(F)(F)F)cc23)C1=O is ____. 4.23 µM·h

Fill blank: measured AUC of the compound CC(=O)N[C@@H]1C[C@H](N(C)C)CC[C@@H]1N1CC[C@H](Nc2ncnc3ccc(C(F)(F)F)cc23)C1=O is ____. 7.28 µM·h
